test system: CCRIS mutagenicity, Ames/micronucleus/aberration tests; experiment: CCRIS mutagenicity studies; conditions: Test System: AMES SALMONELLA TYPHIMURIUM; Strain/Indicator: TA98; Metabolic Activation: RAT, LIVER, S-9, PHENOBARBITAL AND BETA-NAPHTHOFLAVONE; Method: PREINCUBATION
Calls of active or inactive are those of the source. How the calls were made is not given here.
Labels: True (active), False (inactive)

| record.smiles | assigned.category |
| --- | --- |
| ClCCOCCCl | False |
| Nc1c(Cl)cc([N+](=O)[O-])cc1[N+](=O)[O-] | True |
| CN1CCc2cc3c(c4c2[C@H]1[C@H](O)c1ccccc1-4)OCO3 | True |
| C=CC(=O)NCO | False |
| CCOC(C)=O | False |
| COc1cc2c3c(c1OC)-c1cc4c(cc1C[C@@H]3N(C)CC2)OCO4 | True |
| O=[N+]([O-])O | False |
| CC(C)O | False |
| Nc1nc(N)nc(-c2ccccc2)n1 | False |
| Nc1ccc([N+](=O)[O-])cc1N | True |

* * *

tested on: CCRIS mutagenicity, Ames/micronucleus/aberration tests; test: CCRIS mutagenicity studies; details: Test System: AMES SALMONELLA TYPHIMURIUM; Strain/Indicator: TA1535; Metabolic Activation: HAMSTER, LIVER, S-9, AROCLOR 1254; Method: STANDARD PLATE
Active and inactive are the calls of the source. No rule for the calls is given here.
endpoint: mutagenic call

| molecule | observed.result |
| --- | --- |
| CN1C[C@H](C(=O)N[C@]2(C)O[C@@]3(O)[C@@H]4CCCN4C(=O)[C@H](Cc4ccccc4)N3C2=O)C=C2c3cccc4[nH]cc(c34)C[C@H]21 | inactive; negative |
| CN(Cc1ccc(Br)cc1)N=O | active; positive |
| CCC(C)ON=O (centres undefined) | active; positive |
| CC1=Nc2ccccc2C1(C)C | inactive; negative |
| CCCCON=O | active; positive |
| CN(Cc1ccccc1)N=O | active; positive |
| CCCCCON=O | active; positive |
| O=c1[nH][nH]c2ccccc12 | inactive; negative |
| COc1cc(CNC(=O)CCCCCCC(C)C)ccc1O | inactive; negative |
| CN(C)c1ccc(Cc2ccc(N(C)C)cc2)cc1 | inactive; negative |
| c1cscn1 | inactive; negative |
| O=C/C=C/C=C\c1ccc([N+](=O)[O-])cc1 | active; positive |
| [Cl][Fe]([Cl])[Cl] | inactive; negative |
| CN(Cc1ccc(Cl)cc1)N=O | active; positive |
| O=C1CC(c2ccc(O)cc2)Oc2cc(O)cc(O)c21 (centres undefined) | inactive; negative |
| CCCCCCCCC=O | inactive; negative |
| C=Cc1ccc(O)c(OC)c1 | inactive; negative |
| Cc1ccc2nc(-c3ccc(N)cc3)sc2c1 | inactive; negative |
| CSC[C@H](NC(=O)COc1cccc2cnccc12)C(=O)N[C@@H](Cc1ccccc1)[C@H](O)C(=O)N1CSC[C@H]1C(=O)NC(C)(C)C | inactive; negative |
| CC(Cc1ccc(O)c(O)c1)C(C)Cc1ccc(O)c(O)c1 (centres undefined) | inactive; negative |
| CCC/C=N/O | inactive; negative |
| c1ccc2c(c1)CCCC2 | inactive; negative |
| CN(Cc1cccc(C(F)(F)F)c1)N=O | active; positive |
| COCCCN | inactive; negative |
| CSC(C)(C)/C=N/O | inactive; negative |
| CC(C)N=C=NC(C)C | inactive; negative |
| c1ccc(NNc2ccccc2)cc1 | inactive; negative |
| O=C(O)CCc1ccccc1 | inactive; negative |
| CC(=O)OC(C)=O | inactive; negative |
